- Test system: Colo320 human rectal cancer cells
- protocolText: CCK-8 proliferation inhibition, Colo320
- Format: cell-based
- conditionInfo: Homo sapiens, COLO 320; compound concentration 100 μM, CCK-8 method
inhibition at 100 µM class ranges: lower bin (below 20%), middle bin (20% to below 30%), upper bin (30% or more)

{"chemicalStructure": "Nc1cnccc1NC(=O)c1ccc(CNC(=O)OCc2ccccc2)cc1", "class": "upper bin"}
{"chemicalStructure": "Nc1ncccc1NC(=O)c1ccc(CNC(=O)/C=C/c2ccc(F)cc2)cc1", "class": "upper bin"}
{"chemicalStructure": "Nc1ncccc1NC(=O)c1ccc(CNC(=O)OCc2ccc([N+](=O)[O-])cc2)cc1", "class": "lower bin"}
{"chemicalStructure": "COc1cccc(/C=C/C(=O)NCc2ccc(C(=O)Nc3cccnc3N)cc2)c1", "class": "middle bin"}

Incoming: # bin lookup: classify `Cc1ccc(COC(=O)NCc2ccc(C(=O)Nc3cccnc3N)cc2)cc1` by its inhibition at 100 µM
Outgoing: upper bin

Incoming: # bin lookup: classify `Nc1ncccc1NC(=O)c1ccc(CNC(=O)/C=C/c2ccccc2)cc1` by its inhibition at 100 µM
Outgoing: middle bin

Incoming: # bin lookup: classify `COc1ccc(/C=C/C(=O)NCc2ccc(C(=O)Nc3ccncc3N)cc2)cc1` by its inhibition at 100 µM
Outgoing: upper bin

Incoming: # bin lookup: classify `Nc1ncccc1NC(=O)c1ccc(CNC(=O)CCc2ccccc2)cc1` by its inhibition at 100 µM
Outgoing: lower bin

Incoming: # bin lookup: classify `Cc1ccc(COC(=O)NCc2ccc(C(=O)Nc3ccncc3N)cc2)cc1` by its inhibition at 100 µM
Outgoing: upper bin

Incoming: # bin lookup: classify `COc1ccc(/C=C/C(=O)NCc2ccc(C(=O)Nc3ccncc3N)cc2)cc1OC` by its inhibition at 100 µM
Outgoing: lower bin

Incoming: # bin lookup: classify `Nc1ncccc1NC(=O)c1ccc(CNC(=O)OCc2ccccc2)cc1` by its inhibition at 100 µM
Outgoing: lower bin

Incoming: # bin lookup: classify `COc1cc(COC(=O)NCc2ccc(C(=O)Nc3cccnc3N)cc2)cc(OC)c1OC` by its inhibition at 100 µM
Outgoing: lower bin

Incoming: # bin lookup: classify `Nc1ncccc1NC(=O)c1ccc(CNC(=O)OCc2ccc(F)cc2)cc1` by its inhibition at 100 µM
Outgoing: upper bin

Incoming: # bin lookup: classify `COc1ccc(COC(=O)NCc2ccc(C(=O)Nc3ccncc3N)cc2)cc1OC` by its inhibition at 100 µM
Outgoing: middle bin

Incoming: # bin lookup: classify `COc1ccc(CCC(=O)NCc2ccc(C(=O)Nc3cccnc3N)cc2)cc1` by its inhibition at 100 µM
Outgoing: lower bin

Incoming: # bin lookup: classify `COc1ccc(/C=C/C(=O)NCc2ccc(C(=O)Nc3cccnc3N)cc2)cc1OC` by its inhibition at 100 µM
Outgoing: lower bin

Incoming: # bin lookup: classify `Cc1ccc(CCC(=O)NCc2ccc(C(=O)Nc3ccncc3N)cc2)cc1` by its inhibition at 100 µM
Outgoing: lower bin

---

For each of the compounds below, state its inhibition at 10 µM.
- Test system: Jurkat E6-1 human T-cell lymphoma
- protocolText: CCK-8 proliferation inhibition, Jurkat E6-1
- Assay type: cell-based
- conditionInfo: Homo sapiens, Jurkat E6.1, 10 μM
One number for each entry, in %.

Study these solved cases before continuing.
{"compound": "Nc1cnccc1NC(=O)c1ccc(CNC(=O)CCc2ccccc2)cc1 [V-49]", "unitAbbrev": "%", "inhibition at 10 µM": 28.4}
{"compound": "COc1ccc(/C=C/C(=O)NCc2ccc(C(=O)Nc3ccncc3N)cc2)cc1OC [V-94]", "unitAbbrev": "%", "inhibition at 10 µM": 65.6}
{"compound": "COc1cccc(/C=C/C(=O)NCc2ccc(C(=O)Nc3cccnc3N)cc2)c1 [V-91]", "unitAbbrev": "%", "inhibition at 10 µM": 23.7}

Incoming: Give the reported inhibition at 10 µM for this compound. Nc1ncccc1NC(=O)c1ccc(CNC(=O)OCc2ccccc2)cc1 [V-8]
Outgoing: 5.4
